# Test description: In vivo PK studies in mice
# Experimental context: mouse, plasma, other: oral gavage or intraperitoneal (IP) injection
Endpoint: half-life

## Input Name the recorded half-life for Cc1ccc([N+](=O)[O-])cc1S(=O)(=O)n1c(C)nc2ccccc21 [BI6015] .
## Output ~1.5 h

====

# System: endogenous insulin promoter
# Test description: Endogenous insulin mRNA
# Format: cell-based, human
# Experimental context: Homo sapiens, 48 h, read-out: IC50, inhibition of endogenous insulin expression
Endpoint: pIC50
Reminder that pIC50 is minus the log10 of a molar concentration.

## Input Could you share which pIC50 value was measured for `Cc1nc2ccccc2n1S(=O)(=O)c1cc([N+](=O)[O-])ccc1Cl` ?
## Output 6.03

====

# Measurement target: HNF4α DNA binding (Homo sapiens, UniProt P41235)
# Sequence (P41235 1-474): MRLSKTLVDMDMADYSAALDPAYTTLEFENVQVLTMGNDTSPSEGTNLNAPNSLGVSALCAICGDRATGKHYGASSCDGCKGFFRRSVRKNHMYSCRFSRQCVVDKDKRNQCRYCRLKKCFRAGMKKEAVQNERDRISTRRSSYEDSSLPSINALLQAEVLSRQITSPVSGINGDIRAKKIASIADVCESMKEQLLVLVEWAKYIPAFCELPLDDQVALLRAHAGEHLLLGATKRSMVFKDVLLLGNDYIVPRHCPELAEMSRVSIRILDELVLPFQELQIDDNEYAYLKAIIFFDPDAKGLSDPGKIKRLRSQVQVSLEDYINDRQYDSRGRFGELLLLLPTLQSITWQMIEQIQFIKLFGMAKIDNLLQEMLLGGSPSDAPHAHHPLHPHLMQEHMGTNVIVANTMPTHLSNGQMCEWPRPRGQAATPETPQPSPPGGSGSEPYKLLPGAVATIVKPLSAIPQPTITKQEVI
# Test description: HNF4α DNA binding, HNF TransAM ELISA on HepG2 nuclear extracts
# Type: cell-based
# Experimental context: HepG2 incubated overnight with compound
Endpoint: effect on HNF4α DNA binding

Cc1nc2ccccc2n1Cc1cc([N+](=O)[O-])ccc1O; inactive
CCCCCS(=O)(=O)NC(=O)c1ccc2nc(C)n(Cc3ccc(Cl)cc3Cl)c2c1 [FK614, reference compound]; inactive
